System: U-251
Assay: NCI tumour cell line growth inhibition, 48 h
Calls of active or inactive are those of the source. Rule as the data show it: active = GI50 up to about 1.1 µM and inactive = higher.
# output must be one of active, inactive

Solved cases below.
>  <Compound>
CC(C)(C)c1cc(C(C)(C)C)c(SS(=O)(=O)O)c(O)c1O

>  <Target Or Test System>
U-251

>  <Label Value>
inactive

$$$$
>  <Compound>
C[N+]1(C)C/C(=C\c2ccncc2)C(=O)/C(=C/c2ccncc2)C1

>  <Target Or Test System>
U-251

>  <Label Value>
inactive

$$$$
>  <Compound>
CCc1cccc(C)c1NC(=O)CC1Sc2ccccc2NC1=O (stereo not drawn)

>  <Target Or Test System>
U-251

>  <Label Value>
inactive

$$$$
>  <Compound>
CCc1nc2cc(F)ccc2[nH]c1=O

>  <Target Or Test System>
U-251

>  <Label Value>
inactive

$$$$

Q: // param item: OC1CCN2Cc3ccccc3N=C12 (stereo not drawn) ; yields the recorded call
Result: inactive

Q: // param item: NNC(=S)N/N=C(/C(=O)Nc1cc(Cl)ccc1Cl)C1C(=O)Nc2ccccc2[S+]1[O-] (stereo not drawn) ; yields the recorded call
Result: inactive

Q: // param item: COC(=O)[C@]1(c2cc3ccccc3n2S(=O)(=O)c2ccccc2)CC2CCC1NC2 (stereo partly drawn) ; yields the recorded call
Result: inactive

Q: // param item: C=CC[N+](CCO)(CCO)CCCCCCCCCCCCCCCCCC ; yields the recorded call
Result: inactive

Q: // param item: CCOC(=O)/C=C(/C(=O)OCC)n1ccc(=O)[nH]c1=O ; yields the recorded call
Result: inactive

Q: // param item: CCCCC1CC(c2cccc([N+](=O)[O-])c2)=NO1 (stereo not drawn) ; yields the recorded call
Result: inactive

Q: // param item: COc1ccc(C2=Nc3ccccc3NC(=O)C2)cc1 ; yields the recorded call
Result: inactive

----------
Test system: SK-MEL-5
Assay: NCI tumour cell line growth inhibition, 48 h
The source made the active and inactive calls. No stated cut-off is given here; in the data, active = GI50 up to about 1.1 µM and inactive = higher.
# output must be one of active, inactive

>  <Molecule>
CC(C)N(C(=O)C12C3C4C1C1C2C3C41C#N)C(C)C (stereo unspecified)

>  <Label Value>
inactive

$$$$

Q: // param item: CCOC(=O)Nn1c(C)cc(C(=O)OC)c1C ; yields the recorded call
Result: inactive

Q: // param item: O=C(/C=C/c1c(O)ccc2ccccc12)c1ccccc1 ; yields the recorded call
Result: inactive

----------
Test system: SR
Assay: NCI tumour cell line growth inhibition, 48 h
Calls of active or inactive are those of the source. No stated cut-off is given here; in the data, active = GI50 up to about 1.1 µM and inactive = higher.
Experimental Readout: GI50

Completed entries (count: 2):
>  <Molecule>
COc1ccc(C(C)c2cc3c(cc2OC)OCO3)cc1 (stereo not drawn)

>  <GI50>
0.881 µM (active)

$$$$
>  <Molecule>
CCCCCC/C=C\CCCCCCCCCC1=CC(=O)C=C(OC)C1=O

>  <GI50>
2.72 µM (inactive)

$$$$

Recorded result, CCC1(OC(=O)CNC)C(=O)OCc2c1cc1n(c2=O)Cc2cc3ccccc3nc2-1 (stereo not drawn) , GI50: < 0.01 µM (active)

Recorded result, C[N+]1(C)C/C(=C\c2ccncc2)C(=O)/C(=C/c2ccncc2)C1 , GI50: > 100 µM (inactive)

Recorded result, COc1cccc(Nc2nc(-c3cccs3)nc3ccc(Br)cc23)c1 , GI50: 1.48 µM (inactive)

Recorded result, CC(C)=C1CCC(CN(C)C)C1=O (stereo not drawn) , GI50: 12.4 µM (inactive)

Recorded result, NNC(=S)N/N=C(/C(=O)Nc1cc(Cl)ccc1Cl)C1C(=O)Nc2ccccc2[S+]1[O-] (stereo not drawn) , GI50: 94.2 µM (inactive)

Recorded result, NC(=O)c1ccc(S(=O)(=NS(=O)(=O)c2ccccc2)c2ccc(C(N)=O)cc2)cc1 , GI50: > 100 µM (inactive)

Recorded result, CC(C)=CCCc1c(C)ccc2c1C(=O)C(=O)C(C(C)C)=C2 , GI50: 3.5 µM (inactive)

Recorded result, CCOC(=O)Cc1csc(Nc2ccc(OCC)cc2)n1 , GI50: 73.8 µM (inactive)

Recorded result, O=C(O)CN1C(=O)OC(c2ccccc2)C1=O (stereo not drawn) , GI50: > 100 µM (inactive)

Recorded result, CC(NNC(=O)c1cc[n+]([BH2-]C#N)cc1)c1ccccc1 (stereo not drawn) , GI50: > 100 µM (inactive)

Recorded result, COc1cccc(C2SCC(=O)N2c2ccc(-n3c(-c4ccccc4)nc4ccccc4c3=O)cc2)c1OC (stereo not drawn) , GI50: > 100 µM (inactive)

Recorded result, Cc1cc2c(cc1-c1cc3c(cc1C)C(C(C)C)=C(O)C(=O)/C3=C\Nc1c3ccccc3nc3ccccc13)/C(=C/Nc1c3ccccc3nc3ccccc13)C(=O)C(O)=C2C(C)C , GI50: 3.91 µM (inactive)

----------
Test system: U-251
Assay: NCI tumour cell line growth inhibition, 48 h
Active and inactive are the calls of the source. Cut-off read from the data, not from the text of the source: active = GI50 up to about 1.1 µM and inactive = higher.
# maps each entry to its GI50

Completed entries (count: 3):
>  <Compound>
COc1ccc(N2C(=O)c3c4c(c5c([nH]c6ncccc65)c3C2=O)CCC(C(C)(C)C)C4)cc1 (configuration not stated)

>  <Test Result>
31 µM (inactive)

$$$$
>  <Compound>
COc1cc2c3c(cc(Cl)nc3c1OC)C(O)(CC(C)=O)C(=O)N2 (configuration not stated)

>  <Test Result>
57.8 µM (inactive)

$$$$
>  <Compound>
CCCCC/C=C1\CCC(CN(C)C)C1=O (configuration not stated)

>  <Test Result>
8.2 µM (inactive)

$$$$

Tested system U-251; GI50 recorded for C=CC(=O)NC(=N)NC#N was 158 µM (inactive)

Tested system U-251; GI50 recorded for NCC(=O)NC(CO)C(=O)O (configuration not stated) was > 100 µM (inactive)

Tested system U-251; GI50 recorded for CSC(=S)NN=C1CCCC1.CSC(=S)NN=C1CCCC1.[Zn+2] was 8.93 µM (inactive)

Tested system U-251; GI50 recorded for C=CCCCCn1c2ccccc2c2c(C)c3cnccc3c(C)c21 was 12.5 µM (inactive)

----------
# maps each entry to its GI50
System: SW-620
Experiment: NCI tumour cell line growth inhibition, 48 h
Activity calls are given as the source filed them. No stated cut-off is given here; in the data, active = GI50 up to about 1.1 µM and inactive = higher.

Completed entries (count: 4):
>  <Compound>
CSc1nc(-c2ccccc2)nc(C(C#N)C#N)n1

>  <GI50>
> 100 µM (inactive)

$$$$
>  <Compound>
CC1=Nc2nc3ccccc3n2C(C)(C)C1

>  <GI50>
> 100 µM (inactive)

$$$$
>  <Compound>
CC(=O)OC1CC(n2cc(F)c(=O)[nH]c2=O)OC1CO (configuration not stated)

>  <GI50>
10.8 µM (inactive)

$$$$
>  <Compound>
O=C1C(Br)=C(Br)C(=O)c2c(O)ccc(O)c21

>  <GI50>
1.33 µM (inactive)

$$$$

Recorded result, Cc1noc(C)c1CCCOC1COc2ccccc2OCCOCCOc2ccccc2OC1 , GI50: > 100 µM (inactive)

Recorded result, O=C(O)CCC(=O)N1C/C(=C\c2ccccc2)C(=O)/C(=C/c2ccccc2)C1 , GI50: 1.58 µM (inactive)

Recorded result, CC1(C)CCc2cc3c(cc2O1)OCC1c2cc4c(cc2OC31)OCO4 (configuration not stated) , GI50: > 100 µM (inactive)

Recorded result, C/C(=N/NC(=O)c1ccccc1O)c1ccc(/C(C)=N\NC(=O)c2ccccc2O)c2nc3cc(C)c(C)cc3nc12 , GI50: > 100 µM (inactive)

Recorded result, O=C(CCC=C(S(=O)(=O)c1ccccc1)S(=O)(=O)c1ccccc1)c1ccccc1 , GI50: 3.4 µM (inactive)

----------
Tested on: Hs-578T
Assay: NCI tumour cell line growth inhibition, 48 h
The source made the active and inactive calls. No stated cut-off is given here; in the data, active = GI50 up to about 1.1 µM and inactive = higher.
Experimental Readout: GI50

Completed entries (count: 2):
>  <Molecule>
c1ccc2c3c(ccc2c1)CSCc1ccc2ccccc2c1-3

>  <Target Or Test System>
Hs-578T

>  <GI50>
> 100 µM (inactive)

$$$$
>  <Molecule>
CC(=O)OC1CC(n2cc(F)c(=O)[nH]c2=O)OC1CO (stereo not drawn)

>  <Target Or Test System>
Hs-578T

>  <GI50>
7.4 µM (inactive)

$$$$

Next molecule, please.
Recorded result, OC1C2[C@@H](O)CCCN2C[C@@H](O)[C@H]1O (stereo partly drawn) , GI50: > 100 µM (inactive)

----------
System: SF-268
Assay: NCI tumour cell line growth inhibition, 48 h
The source made the active and inactive calls. No stated cut-off is given here; in the data, active = GI50 up to about 1.1 µM and inactive = higher.
# output must be one of label 1 for active, label 0 for inactive

Q: // param item: CCOC(=O)/C1=C(\C)N(c2ccc(C)cc2)C(=O)c2ccccc2C(=O)c2c(OC(C)=O)ccc(OC(C)=O)c21 ; yields the recorded call
Result: label 0

Q: // param item: CSc1nc(-c2ccccc2)nc(C(C#N)C#N)n1 ; yields the recorded call
Result: label 0

Q: // param item: CC(C)(C)c1ccc2c(c1)CNCCNCCNCc1cc(C(C)(C)C)ccc1OCC1(CO2)COc2ccc(C(C)(C)C)cc2CNCCNCCNCc2cc(C(C)(C)C)ccc2OC1 ; yields the recorded call
Result: label 0

Q: // param item: Cc1[nH]c(/C=C2\C(=O)Nc3ccccc32)c(C)c1CCC(=O)O [ORANTINIB] ; yields the recorded call
Result: label 0

Q: // param item: OC1C2[C@@H](O)CCCN2C[C@@H](O)[C@H]1O (some centres undefined) ; yields the recorded call
Result: label 0

Q: // param item: O=C(c1ccco1)N(C(=S)OCCOc1ccccc1)c1ccccc1 ; yields the recorded call
Result: label 0
